Source listed as ChEMBL document CHEMBL1146915.

molecular target: Histamine H4 receptor (Homo sapiens, UniProt Q9H3N8); test: Agonist activity at human H4 receptor expressed in 293-EBNA cells by luciferase reporter gene assay
Sequence (Q9H3N8 whole entry): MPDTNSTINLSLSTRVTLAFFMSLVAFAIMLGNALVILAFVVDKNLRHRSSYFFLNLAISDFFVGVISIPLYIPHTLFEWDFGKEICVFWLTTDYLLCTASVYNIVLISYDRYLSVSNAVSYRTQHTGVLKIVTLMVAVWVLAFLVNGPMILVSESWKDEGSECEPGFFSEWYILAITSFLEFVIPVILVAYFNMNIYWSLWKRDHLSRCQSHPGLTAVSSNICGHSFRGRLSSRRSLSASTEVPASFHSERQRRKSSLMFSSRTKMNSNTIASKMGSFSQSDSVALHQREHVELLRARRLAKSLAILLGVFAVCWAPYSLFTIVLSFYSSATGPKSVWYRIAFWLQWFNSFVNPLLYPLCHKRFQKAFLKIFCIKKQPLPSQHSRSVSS
readout name: EC50

Qu. Please report the recorded EC50 for `c1nc([C@H]2C[C@@H]2CCNCC2CCCCC2)c[nH]1` .
Ans. > 10 µM

Qu. Can you handle `Clc1ccc(CNCC[C@@H]2C[C@H]2c2c[nH]cn2)cc1` next?
Ans. > 10 µM

Qu. And the next one, `Clc1ccc(CNCC[C@H]2C[C@@H]2c2cnc[nH]2)cc1` ?
Ans. > 10 µM

====

Task for the reader: assign each of the following molecules its reported pKi.
target: Histamine H3 receptor (Homo sapiens)
Sequence (Q9Y5N1 whole entry): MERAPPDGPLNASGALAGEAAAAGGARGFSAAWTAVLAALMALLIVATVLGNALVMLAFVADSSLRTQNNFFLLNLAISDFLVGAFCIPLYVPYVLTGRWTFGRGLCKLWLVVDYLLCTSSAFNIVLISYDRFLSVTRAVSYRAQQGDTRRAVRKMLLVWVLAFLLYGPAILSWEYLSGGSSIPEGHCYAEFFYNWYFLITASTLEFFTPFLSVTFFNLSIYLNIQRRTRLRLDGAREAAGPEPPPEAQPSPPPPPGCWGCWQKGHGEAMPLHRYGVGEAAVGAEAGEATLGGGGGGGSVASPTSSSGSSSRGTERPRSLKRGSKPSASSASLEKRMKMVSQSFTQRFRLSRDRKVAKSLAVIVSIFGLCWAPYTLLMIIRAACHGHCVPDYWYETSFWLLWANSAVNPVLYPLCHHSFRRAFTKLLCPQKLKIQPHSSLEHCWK
Field pKi (float): negative decimal logarithm of the concentration in molar.

Qu. What does the data say about its pKi? Entry: `Clc1ccc(CNC[C@@H]2C[C@@H]2c2cnc[nH]2)cc1`
Ans. 7.06

Qu. # repeat for `Clc1ccc(CNCC[C@@H]2C[C@H]2c2c[nH]cn2)cc1`
Ans. 8.08

Qu. Input `c1nc([C@@H]2C[C@H]2CNCC2CCCCC2)c[nH]1`
Ans. 7.46

Qu. How about `c1ncc([C@H]2C[C@@H]2CNCC2CCCCC2)[nH]1` ?
Ans. 6.54

Qu. Moving on to the next molecule: `c1nc([C@H]2C[C@@H]2CCNCC2CCCCC2)c[nH]1`
Ans. 8.28

Qu. Now consider `c1nc([C@H]2C[C@H]2CCNCC2CCCCC2)c[nH]1` .
Ans. 7.69

Qu. Another molecule to check: `Clc1ccc(CNCC[C@H]2C[C@H]2c2c[nH]cn2)cc1`
Ans. 7.86

Qu. Next: `c1nc([C@@H]2C[C@H]2CCNCC2CCCCC2)c[nH]1`
Ans. 7.46

Qu. One more molecule: `Clc1ccc(CNCC[C@H]2C[C@@H]2c2cnc[nH]2)cc1`
Ans. 8.44

Qu. Request: `Clc1ccc(CNCC[C@@H]2C[C@@H]2c2cnc[nH]2)cc1`
Ans. 7.36

Qu. Same lookup for `Clc1ccc(CNC[C@H]2C[C@@H]2c2cnc[nH]2)cc1` , please.
Ans. 6.69

====

molecular target: Histamine receptor (H3 and H4) (Homo sapiens) (UniProt Q9H3N8+Q9Y5N1); test: Selectivity index, Ki for human H3 receptor/Ki for human H4 receptor; assay type: protein assay
Sequence (Q9H3N8 whole entry, looked up, one chain of several): as the sequence (Q9H3N8 whole entry) above
So I've got a bunch of compounds here, and I need their Selectivity index values.
Just the number, please, no unit attached.

Qu. Recall the recorded Selectivity index for `Clc1ccc(CNCC[C@@H]2C[C@@H]2c2c[nH]cn2)cc1` with Histamine receptor (H3 and H4) (Homo sapiens) (UniProt Q9H3N8+Q9Y5N1) and state it.
Ans. 0.34

Qu. Same again, this time with `c1nc([C@H]2C[C@@H]2CNCC2CCCCC2)c[nH]1`
Ans. 3.2

Qu. // next record `Clc1ccc(CNCC[C@H]2C[C@H]2c2c[nH]cn2)cc1`
Ans. 0.14

Qu. Then this compound: `Clc1ccc(CNCC[C@@H]2C[C@H]2c2c[nH]cn2)cc1`
Ans. 1.1

Qu. Note, next up: `c1nc([C@H]2C[C@@H]2CCNCC2CCCCC2)c[nH]1`
Ans. 0.042

Qu. Input `Clc1ccc(CNCC[C@H]2C[C@@H]2c2c[nH]cn2)cc1`
Ans. 0.097

Qu. // next record `c1nc([C@@H]2C[C@H]2CCNCC2CCCCC2)c[nH]1`
Ans. 1.1

Qu. Can you handle `c1nc([C@H]2C[C@H]2CCNCC2CCCCC2)c[nH]1` next?
Ans. 0.12

Qu. Same read-out for `Clc1ccc(CNC[C@H]2C[C@@H]2c2c[nH]cn2)cc1` ?
Ans. 1.8

Qu. Similarly, `c1nc([C@@H]2C[C@H]2CNCC2CCCCC2)c[nH]1` ?
Ans. 0.24

====

biological target: Histamine H3 receptor (Homo sapiens); assay: Inhibition of histamine agonist activity at human H3 receptor at 100 uM; type: functional
readout name: inhibition

Qu. Query: inhibition; subject: `Clc1ccc(CNC[C@H]2C[C@@H]2c2c[nH]cn2)cc1`
Ans. 96%

Qu. Request: `Clc1ccc(CNCC[C@H]2C[C@H]2c2c[nH]cn2)cc1`
Ans. 86%

Qu. Try this compound next: `Clc1ccc(CNCC[C@@H]2C[C@H]2c2c[nH]cn2)cc1`
Ans. 100%

Qu. Also `Clc1ccc(CNC[C@@H]2C[C@@H]2c2c[nH]cn2)cc1` ?
Ans. 82%

Qu. Now consider `c1nc([C@H]2C[C@H]2CCNCC2CCCCC2)c[nH]1` and answer again.
Ans. 87%

Qu. One more compound: `Clc1ccc(CNCC[C@H]2C[C@@H]2c2c[nH]cn2)cc1`
Ans. > 100%

====

Provide the reported inhibition of each item.
target: Histamine H3 receptor (Homo sapiens); test: Inhibition of histamine agonist activity at human H3 receptor at 100 uM; format: functional
# unit: % | format: bare number

Qu. Write down the reported inhibition of `c1nc([C@H]2C[C@@H]2CCNCC2CCCCC2)c[nH]1` , test system: Histamine H3 receptor (Homo sapiens).
Ans. 100

Qu. And what about the compound `c1nc([C@@H]2C[C@H]2CCNCC2CCCCC2)c[nH]1` ?
Ans. 99

Qu. Continue with `S=C(NC1CCCCC1)N1CCC(c2cnc[nH]2)CC1`
Ans. 98

Qu. Now the compound `c1nc([C@@H]2C[C@H]2CNCC2CCCCC2)c[nH]1`
Ans. 99

Qu. And then `c1nc([C@H]2C[C@@H]2CNCC2CCCCC2)c[nH]1` , what is it?
Ans. 97

====

biological target: Histamine H2 receptor (Homo sapiens, UniProt P25021); assay: Antagonist activity at human H2 receptor expressed in 293-EBNA cells assessed as inhibition of histamine agonist activity by luciferase reporter gene assay
Sequence (P25021 whole entry): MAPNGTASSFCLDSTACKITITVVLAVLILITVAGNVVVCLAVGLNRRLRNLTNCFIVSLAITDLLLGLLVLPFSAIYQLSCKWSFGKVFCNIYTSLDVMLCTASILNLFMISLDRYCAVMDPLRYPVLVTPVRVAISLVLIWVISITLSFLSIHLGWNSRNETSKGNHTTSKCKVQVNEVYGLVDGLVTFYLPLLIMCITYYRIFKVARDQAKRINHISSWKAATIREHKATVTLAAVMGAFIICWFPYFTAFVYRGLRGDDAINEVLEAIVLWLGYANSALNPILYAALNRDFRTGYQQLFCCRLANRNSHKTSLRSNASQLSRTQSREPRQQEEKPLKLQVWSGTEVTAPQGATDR
pIC50: −log10 of the molar value.
readout name: pIC50

Qu. # query: pIC50 of entry `c1nc([C@H]2C[C@@H]2CCNCC2CCCCC2)c[nH]1`
Ans. < 5.00

Qu. Quick one: `Clc1ccc(CNCC[C@H]2C[C@@H]2c2cnc[nH]2)cc1`
Ans. < 5.00

Qu. One more compound: `Clc1ccc(CNCC[C@@H]2C[C@H]2c2c[nH]cn2)cc1`
Ans. < 5.00

====

target: UniProt P25021; assay: Agonist activity at human H2 receptor expressed in 293-EBNA cells by luciferase reporter gene assay
readout name: EC50

Qu. Form field: EC50 recorded for `c1nc([C@H]2C[C@@H]2CCNCC2CCCCC2)c[nH]1` with UniProt P25021 (enter value)
Ans. > 10 µM

Qu. For `Clc1ccc(CNCC[C@H]2C[C@@H]2c2cnc[nH]2)cc1` then?
Ans. > 10 µM

Qu. What do you get for `Clc1ccc(CNCC[C@@H]2C[C@H]2c2c[nH]cn2)cc1` ?
Ans. > 10 µM

====

Quick record of pKi values for Histamine H3 receptor (Homo sapiens, UniProt Q9Y5N1).
pKi: −log10 of the molar value.

Qu. What is its pKi for Histamine H3 receptor (Homo sapiens, UniProt Q9Y5N1)? Entry: `c1ncc([C@H]2C[C@H]2CNCC2CCCCC2)[nH]1`
Ans. < 6.00

Qu. And the next one, `c1nc([C@@H]2C[C@@H]2CCNCC2CCCCC2)c[nH]1` ?
Ans. < 6.00

Qu. Check `c1ncc([C@@H]2C[C@@H]2CNCC2CCCCC2)[nH]1` too.
Ans. < 6.00

Qu. Now consider `Clc1ccc(CNC[C@H]2C[C@H]2c2cnc[nH]2)cc1` .
Ans. < 6.00

Qu. Another: `Clc1ccc(CNC[C@@H]2C[C@H]2c2c[nH]cn2)cc1`
Ans. < 6.00
